For each entry below, report its IC50 value.
# experimental.system: Recombinant human Src (Homo sapiens, UniProt P12931)
# Construct: made in house; host or cells: baculovirus-insect cell system
# Sequence (P12931 whole entry): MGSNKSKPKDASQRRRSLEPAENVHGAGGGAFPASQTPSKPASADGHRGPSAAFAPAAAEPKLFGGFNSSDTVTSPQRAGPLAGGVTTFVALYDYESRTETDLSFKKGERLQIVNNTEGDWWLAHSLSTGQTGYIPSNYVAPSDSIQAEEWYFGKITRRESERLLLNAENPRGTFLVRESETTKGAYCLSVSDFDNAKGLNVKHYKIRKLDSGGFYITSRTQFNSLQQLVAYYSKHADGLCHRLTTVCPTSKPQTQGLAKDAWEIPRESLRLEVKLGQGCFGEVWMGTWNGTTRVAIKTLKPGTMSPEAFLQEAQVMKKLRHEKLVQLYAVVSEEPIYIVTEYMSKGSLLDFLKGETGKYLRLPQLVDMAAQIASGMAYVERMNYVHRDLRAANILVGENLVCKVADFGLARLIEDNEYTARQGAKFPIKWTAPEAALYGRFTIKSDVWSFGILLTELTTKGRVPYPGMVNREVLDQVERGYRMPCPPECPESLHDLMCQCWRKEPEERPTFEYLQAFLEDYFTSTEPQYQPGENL
# measurement.protocol: Src tyrosine kinase activity, poly E4Y / 32P-ATP phosphorylation assay
# Format: biochemical
# assay.conditions: Table 3, Formula II compounds; NI = no inhibition at 100 μg/mL
Numbers only, in µM.

# count of solved cases: 6
| compound | measured.endpoint | numeric.result |
| --- | --- | --- |
| Cc1ccc(S(=O)(=O)Nc2ccc(Oc3cccc(CC(=O)O)c3)cc2NS(=O)(=O)c2ccc(C)cc2)cc1 [Compound 12y] | IC50 | 11 |
| COc1ccc(Oc2ccc(NS(=O)(=O)c3ccc(OC)c(OC)c3)c(NS(=O)(=O)c3ccc(OC)c(OC)c3)c2)cc1 [Compound 12m] | IC50 | 54 |
| COc1ccc(Oc2ccc(NS(=O)(=O)c3ccc(OC)cc3)c(NS(=O)(=O)c3ccc(OC)cc3)c2)cc1 [Compound 12k] | IC50 | 21 |
| CCCCc1ccc(S(=O)(=O)Nc2ccc(Oc3ccc(OC)cc3)cc2NS(=O)(=O)c2ccc(C)cc2)cc1 [Compound 22x] | IC50 | 36 |
| COc1ccc(Oc2ccc(NS(=O)(=O)c3ccc(Oc4ccccc4)cc3)c(NS(=O)(=O)c3ccc(Oc4ccccc4)cc3)c2)cc1 [Compound 12e] | IC50 | 19 |
| C=CCc1c(OCc2ccc(OC)cc2)ccc(NS(=O)(=O)c2ccc(C)cc2)c1NS(=O)(=O)c1ccc(C)cc1 [Compound 15a] | IC50 | 212 |

Could you now consider this next compound?
Record summary for COc1ccc(Oc2ccc(NS(=O)(=O)c3c(C)cc(C)cc3C)c(NS(=O)(=O)c3c(C)cc(C)cc3C)c2)cc1 [Compound 12q] : reported IC50 = 39
